Reference source: patent US20230220399

Assay system: CD3 delta/epsilon heterodimer (UniProt P04234+P07766)
Sequence (P04234 22-105, stated change not applied, chain 1 of 2): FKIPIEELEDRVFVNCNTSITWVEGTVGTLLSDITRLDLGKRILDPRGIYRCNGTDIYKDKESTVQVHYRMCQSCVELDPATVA
Sequence (P07766 23-126, stated change not applied, chain 2 of 2): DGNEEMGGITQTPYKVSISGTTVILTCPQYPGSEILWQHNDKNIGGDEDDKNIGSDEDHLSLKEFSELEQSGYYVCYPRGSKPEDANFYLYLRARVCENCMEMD
Particulars: Nap-dU at n (6) positions [Nap-dU at 1,6,7,8,9,12,18,19,20,23,32]; ELISA, SB18, 37 C
Experimental endpoint: Kd

Problem: What value of measured Kd is listed for TGCCCTTTTAATCCGACTTTAATGGCCACGCTCAC [AA004] ?
Result: 10.2 nM

* * *

Assay system: PD-L1 (B7-H1) (Homo sapiens) (UniProt Q9NZQ7)
Sequence (Q9NZQ7 19-238): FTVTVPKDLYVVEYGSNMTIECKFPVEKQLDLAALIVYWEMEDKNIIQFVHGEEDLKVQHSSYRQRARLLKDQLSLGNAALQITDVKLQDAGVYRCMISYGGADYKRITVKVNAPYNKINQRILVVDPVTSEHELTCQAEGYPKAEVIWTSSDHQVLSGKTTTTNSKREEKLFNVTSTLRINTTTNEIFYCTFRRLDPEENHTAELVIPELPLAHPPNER
Particulars: Nap-dU at n (6) positions [Nap-dU at 4,17,24,26,29,32,33,36,45]; ELISA, SB18, 37 C
Experimental endpoint: Kd (nM)
Write down the numeric answer in nM and omit the unit.

Problem: Param item = GCCTGACAACAACGAGTGCGAACTGTACTACTTGATAGAGACCCTCAGCC [AP001] ; retrieve measured Kd.
Result: 42.7

* * *

Assay system: human serum albumin (HSA) (Homo sapiens)
Particulars: Nap-dU at n (6) positions [5,11,13,19,21,23,28,36,38,42-45,52,54]; ELISA, SB18, 37 C
Experimental endpoint: Kd
Remember to put the unit after the number in your answer.

Problem: Request body: readout Kd, system human serum albumin (HSA) (Homo sapiens), query CAGGTCGAGCTGTACGCGTGTGTGACCTGAAGACGTATAACTTTTACAGAATCTACA [AD032] . Return the value.
Result: 0.68 nM

* * *

Assay system: PD-L1 (B7-H1) (Homo sapiens) (UniProt Q9NZQ7)
Particulars: Nap-dU at n (6) positions [Nap-dU at 29,36,38,41,44,45,48,57]; ELISA, SB18, 37 C
Listed next: entries and their corresponding pKd.
Lab note — pKd values are minus log10 of concentrations in M.

sequence_data="GAGTGACCGTCTGCCTGACAACAACGAGTGCGAACTGTACTACTTGATAGAGACCCTC [AP023]" experimental_endpoint=pKd value_reported=7.03

Here's the next entry for you.
Problem: Recorded pKd for GAGTGACCGTCTGCCTGACAACAACGAGTGCGAACTGTACTACTTGATAGAGACCCTCAGCCACACCACCAGCC [AP013] , please?
Result: 7.13

* * *

Assay system: 4-1BB (TNFRSF9) (Homo sapiens)
Particulars: Nap-dU at n (6) positions [5,10,11,12,18,20,22,24,32]; ELISA, SB18, 37 C
Experimental endpoint: Kd (nM)
Your answer is read as nM, so omit the unit and give the number.

Problem: // returns reported Kd for input AACCTCGCCTTTACAACTATATCTGACGAACTAACA [AB004]
Result: 0.05

* * *

Assay system: PD-L1 (B7-H1) (Homo sapiens) (UniProt Q9NZQ7)
Particulars: Nap-dU at n (6) positions [Nap-dU at 18,22,26,34,36,39,42,43,46,52,57]; ELISA, SB18, 37 C
Experimental endpoint: Kd (nM)
Give just the number in nM; leave the unit off.

Problem: Would you mind telling me what Kd value was observed for GAGTGACCGTCTGCCTGTCAATCACTGACGAAATGTACTACTTGATAGAGCTAACCTCAGCCACACCACCAGCC [AP027] ?
Result: 354

* * *

Test system: KRAS G12D G12D, P01116-2
Particulars: Nap-dU at n (6) positions [5,10,14,20,27,28,29,31,40]; ELISA, SB18, 37 C
Experimental endpoint: Kd (nM)
Just the number in nM, nothing appended.

Problem: Consider the sequence shown here: GGACTAGCATAAGTCCGGATGGCAGCTTTATGCCGACCAT [TD003] What is its recorded Kd?
Result: 2720
